target: MPER peptide PDT-081 (HIV-1); assay: BLI on PDT-081
property label: koff (s⁻¹)
Report the figure in s⁻¹ without appending any unit label.

Lab note: H4K3_5M Fab (Fab, V domains shown) VH: KVQLVQSGAELKKPWSSVRVSCKASGGEPESYAFNWVRQAPGQRLEWLGGIVPLVSSTNYAQRFRGRVTISADPETSTVYLEMTGLTSADTAVYFCAREGEGWFGRPLRAFEFWGQGTLVTVST VL: EIVLTQSPGTFALSPGERATLSCRASQSVSGGALAWYQQKAGQAPRLLIYDTSGRATGVPGRFSGSGSETDFSLTISRLEPEDFAVYYCQQYGTSQSTFGQGTRLETR gave koff of 0.00067
